Target: human P2X7 receptor (Homo sapiens, UniProt Q99572, R270H)
Construct: expressed in transfected cells
Sequence (Q99572 1-595 R270H): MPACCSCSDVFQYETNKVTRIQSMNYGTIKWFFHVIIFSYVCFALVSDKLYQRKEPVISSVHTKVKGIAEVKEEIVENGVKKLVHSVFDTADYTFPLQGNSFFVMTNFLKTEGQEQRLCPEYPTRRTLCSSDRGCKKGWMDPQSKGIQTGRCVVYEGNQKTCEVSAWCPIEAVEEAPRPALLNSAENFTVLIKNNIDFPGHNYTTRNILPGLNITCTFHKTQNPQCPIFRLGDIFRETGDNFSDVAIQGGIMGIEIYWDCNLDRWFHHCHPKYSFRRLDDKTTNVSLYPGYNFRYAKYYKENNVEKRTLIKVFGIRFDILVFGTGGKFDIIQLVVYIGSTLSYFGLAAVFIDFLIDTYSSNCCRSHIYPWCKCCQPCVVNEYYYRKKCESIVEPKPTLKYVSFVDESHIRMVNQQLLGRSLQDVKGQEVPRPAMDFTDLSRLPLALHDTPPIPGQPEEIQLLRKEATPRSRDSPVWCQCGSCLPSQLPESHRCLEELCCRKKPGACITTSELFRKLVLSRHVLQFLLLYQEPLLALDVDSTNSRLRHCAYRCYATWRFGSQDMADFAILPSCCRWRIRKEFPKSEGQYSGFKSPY
Experiment: Evaluation of a human P2X7 receptor inhibitory activity (Yo-Pro uptake, BzATP stimulation, FLIPR TETRA)
Format: cell-based
Conditions: antagonistic activity for the human P2X7 receptor, 1321N1 cell transfected with the human P2X7 receptor gene, Yo-Pro fluorescence
measured.property: pIC50
Please report pIC50 as the negative decimal logarithm of the molar concentration, giving only the number.

Query :: // returns reported pIC50 for input O=c1cnn(Cc2ccccc2)c(-c2cccc(C(F)(F)F)c2Cl)c1
Result :: 6.96

Query :: // returns reported pIC50 for input O=c1ccn(CC2CCCCC2)c(-c2cccc(C(F)(F)F)c2Cl)n1
Result :: 6.21

Query :: // returns reported pIC50 for input COc1cn(Cc2ccccc2)c(-c2cccc(C(F)(F)F)c2Cl)nc1=O
Result :: 7.39

Query :: // returns reported pIC50 for input O=c1cc(-c2cccc(C(F)(F)F)c2Cl)n(Cc2ccccc2)cn1
Result :: 6.96

Query :: // returns reported pIC50 for input COc1cn(Cc2ccccc2)c(C2=CCC3(CC2)CC3)nc1=O
Result :: 6.20

Query :: // returns reported pIC50 for input COC(=O)Nc1cn(Cc2ccccc2)c(-c2cccc(C(F)(F)F)c2Cl)nc1=O
Result :: 7.15

Query :: // returns reported pIC50 for input COc1cn(Cc2ccccc2)c(-c2cccc(Cl)c2Cl)nc1=O
Result :: 6.89

Query :: // returns reported pIC50 for input Cc1cn(Cc2ccccc2)c(-c2cccc(C(F)(F)F)c2Cl)nc1=O
Result :: 6.68

Query :: // returns reported pIC50 for input CC(=O)Nc1cn(Cc2ccccc2)c(-c2cccc(C(F)(F)F)c2Cl)nc1=O
Result :: 6.74

Query :: // returns reported pIC50 for input O=c1ccn(Cc2ccc(F)cc2)c(-c2cccc(Cl)c2Cl)c1
Result :: 6.09

Query :: // returns reported pIC50 for input O=c1cc(-c2cccc(C(F)(F)F)c2Cl)n(Cc2ccccc2F)cc1Br
Result :: 7.17

Query :: // returns reported pIC50 for input COc1cn(CC#N)c(-c2cccc(C(F)(F)F)c2Cl)nc1=O
Result :: 6.00

Query :: // returns reported pIC50 for input O=c1nc(-c2cccc(C(F)(F)F)c2Cl)n(Cc2ccccc2)cc1F
Result :: 7.24

Query :: // returns reported pIC50 for input O=c1ccn(Cc2cccc3ccsc23)c(-c2cccc(C(F)(F)F)c2Cl)c1
Result :: 6.96

Query :: // returns reported pIC50 for input Nc1cn(Cc2ccccc2)c(-c2cccc(C(F)(F)F)c2Cl)nc1=O
Result :: 6.57

Query :: // returns reported pIC50 for input COc1cn(Cc2ccccc2)c(-c2ccc(Cl)cc2Cl)nc1=O
Result :: 6.72

Query :: // returns reported pIC50 for input COc1cn(Cc2cccc3ccccc23)c(-c2cccc(C(F)(F)F)c2Cl)nc1=O
Result :: 7.70

Query :: // returns reported pIC50 for input COc1cn(Cc2ccccc2)c(-c2cccc(C(F)(F)F)c2Cl)cc1=O
Result :: 7.36

Query :: // returns reported pIC50 for input O=c1nc(-c2cccc(C(F)(F)F)c2Cl)n(Cc2ccccc2)cc1OCC(F)(F)F
Result :: 7.22
